Test system: Vero E6 infected with SARS-CoV-2
Assay: inhibition of SARS-CoV-2 cytopathic effect; higher = more antiviral protection, active = above 15
Conditions: 8.33 nM; 48 h
Documented inhibition of SARS-CoV-2 cytopathic effect across a set of compounds
VALUE_TYPE: inhibition of SARS-CoV-2 cytopathic effect (%)

- COMPOUND: "O=C(O)C[C@H](O)C[C@H](O)/C=C/c1c(C2CC2)nc2ccccc2c1-c1ccc(F)cc1"
  UNITS_OF_MEASURE: "%"
  RECORDED_VALUE: 3.86
- COMPOUND: "c1nc(CC2CCNCC2)c[nH]1 [immepip]"
  UNITS_OF_MEASURE: "%"
  RECORDED_VALUE: -3.19
- COMPOUND: "CCN1CCN(C(=O)N[C@@H](C(=O)N[C@@H]2C(=O)N3C(C(=O)O)=C(CSc4nnnn4C)CS[C@H]23)c2ccc(O)cc2)C(=O)C1=O"
  UNITS_OF_MEASURE: "%"
  RECORDED_VALUE: -0.65
- COMPOUND: "Cc1ccc(C(=O)C(C)CN2CCCCC2)cc1 (configuration not stated)"
  UNITS_OF_MEASURE: "%"
  RECORDED_VALUE: -1.26
- COMPOUND: "O=C1[O][SbH]23[O]C(=O)C([O]2)C2[O][SbH]4([O]C(=O)C([O]4)C1[O]3)[O]C2=O [antimonyl]"
  UNITS_OF_MEASURE: "%"
  RECORDED_VALUE: 0.38
- COMPOUND: "NC(=O)CN1CC(O)CC1=O (configuration not stated)"
  UNITS_OF_MEASURE: "%"
  RECORDED_VALUE: 0.12
- COMPOUND: "C[C@@H]1CCC[C@H](C)N1NC(=O)c1ccc(Cl)c(S(N)(=O)=O)c1 [clopamide]"
  UNITS_OF_MEASURE: "%"
  RECORDED_VALUE: 2.77
- COMPOUND: "CCOc1cc(C(C)(C)C)ccc1C1=N[C@@](C)(c2ccc(Cl)cc2)[C@@](C)(c2ccc(Cl)cc2)N1C(=O)N1CCN(CCCS(C)(=O)=O)CC1"
  UNITS_OF_MEASURE: "%"
  RECORDED_VALUE: -0.35
- COMPOUND: "Cc1cc(CCCOc2c(C)cc(-c3noc(C(F)(F)F)n3)cc2C)on1"
  UNITS_OF_MEASURE: "%"
  RECORDED_VALUE: 0.33
- COMPOUND: "C[C@]12C=CC(=O)N[C@@H]1CC[C@@H]1[C@@H]2CC[C@]2(C)[C@@H](C(=O)Nc3cc(C(F)(F)F)ccc3C(F)(F)F)CC[C@@H]12 [dutasteride]"
  UNITS_OF_MEASURE: "%"
  RECORDED_VALUE: -3.31
- COMPOUND: "CO[C@@]1(NC(=O)CSCC#N)C(=O)N2C(C(=O)O)=C(CSc3nnnn3C)CS[C@@H]21"
  UNITS_OF_MEASURE: "%"
  RECORDED_VALUE: 1.39
- COMPOUND: "Cc1ccc(/C=N/NC(=O)c2ccccc2Oc2ccccc2)o1"
  UNITS_OF_MEASURE: "%"
  RECORDED_VALUE: -0.44
- COMPOUND: "CCCCN(CCCC)CC(O)c1cc(Cl)cc2c1-c1ccc(Cl)cc1/C2=C/c1ccc(Cl)cc1 (configuration not stated)"
  UNITS_OF_MEASURE: "%"
  RECORDED_VALUE: 3.13
- COMPOUND: "C[C@@H](O)[C@H]1C(=O)N2C(C(=O)O)=C([C@H]3CCCO3)S[C@H]12"
  UNITS_OF_MEASURE: "%"
  RECORDED_VALUE: -0.11
- COMPOUND: "CCc1ccc(/C=C/C(=O)Nc2ccc(C(C)=O)cc2)o1"
  UNITS_OF_MEASURE: "%"
  RECORDED_VALUE: -1.28
- COMPOUND: "NC(=O)C[C@H](N)C(=O)O"
  UNITS_OF_MEASURE: "%"
  RECORDED_VALUE: -1.93
- COMPOUND: "O.O=[Si]=O.O=[Si]=O.O=[Si]=O.O=[Si]=O.[O]=[Mg].[O]=[Mg].[O]=[Mg]"
  UNITS_OF_MEASURE: "%"
  RECORDED_VALUE: 0.07
